MEASURED_TARGET: TxtE (Streptomyces scabiei, UniProt C9ZDC6)
Sequence (C9ZDC6 1-406): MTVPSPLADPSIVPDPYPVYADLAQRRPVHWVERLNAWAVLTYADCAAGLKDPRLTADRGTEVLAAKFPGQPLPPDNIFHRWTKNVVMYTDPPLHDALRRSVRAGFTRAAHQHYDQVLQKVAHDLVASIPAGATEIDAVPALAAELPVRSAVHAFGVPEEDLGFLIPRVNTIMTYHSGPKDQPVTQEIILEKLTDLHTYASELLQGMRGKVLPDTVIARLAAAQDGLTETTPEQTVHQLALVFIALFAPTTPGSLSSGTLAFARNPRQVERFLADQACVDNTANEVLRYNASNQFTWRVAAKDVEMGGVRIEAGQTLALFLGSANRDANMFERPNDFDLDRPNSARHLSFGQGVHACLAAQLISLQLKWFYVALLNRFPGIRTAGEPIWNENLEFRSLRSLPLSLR
ASSAY_DETAILS: ITC of Trp titration to TxtE
MEASUREMENT_CONTEXT: 2 mM Trp into 50 μM TxtE, single binding site
READOUT_KIND: Kd (µM)
Write it as a number; the unit µM goes unstated.

Note to self: Kd recorded for N[C@@H](Cc1c[nH]c2ccccc12)C(=O)O was 16

###

MEASURED_TARGET: RufO (Streptomyces atratus, UniProt A0A224AU14)
Sequence (A0A224AU14 1-394): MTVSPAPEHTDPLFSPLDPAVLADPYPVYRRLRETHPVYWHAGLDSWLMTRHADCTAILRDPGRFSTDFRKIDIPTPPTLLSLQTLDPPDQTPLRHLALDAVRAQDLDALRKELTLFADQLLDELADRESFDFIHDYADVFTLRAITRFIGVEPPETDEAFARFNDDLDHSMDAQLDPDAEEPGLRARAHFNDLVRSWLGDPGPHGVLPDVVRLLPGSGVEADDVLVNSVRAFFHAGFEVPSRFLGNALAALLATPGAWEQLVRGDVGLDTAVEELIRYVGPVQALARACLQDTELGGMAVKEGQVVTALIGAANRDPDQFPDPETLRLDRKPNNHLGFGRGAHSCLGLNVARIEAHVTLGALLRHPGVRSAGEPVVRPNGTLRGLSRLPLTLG
Square brackets hold non-standard residues; d marks the D form. Peptide text beside a SMILES is read from it. Nle = CCCC[C@H](N)C(=O)O
READOUT_KIND: Kd (nM)
Response body: numeric value in nM, unit text excluded.

According to the records, this compound CCCC[C@H](N)C(=O)N[C@@H](CCCNC(=N)N)C(=O)N[C@@H](Cc1ccc(O)cc1)C(=O)N[C@@H](CC(C)C)C(=O)N[C@@H](Cc1c[nH]cn1)C(=O)O [Nle-RYLH] (H-[Nle]RYLH-OH) displays Kd of 1600
